The reported measurements were obtained from patent US10981905B2.

Target: Nav1.1 (Homo sapiens (Human), UniProt P35498)
Assay: Sodium Influx Assay (Flux), Nav1.1
Details: Trex HEK293 cells, ANG2 dye, inactivated state
Where a name gives a salt, the structure may show the parent alone.
For each entry below, report its IC50 value.
Answer format: numeric, µM implied, no suffix.

For Nav1.1 (Homo sapiens (Human), UniProt P35498), give IC50 of the listed molecule: Cc1nc(NCc2c(F)cccc2CN(C)C(C)(C)C)ccc1S(=O)(=O)Nc1cscn1 [Example 10, formic acid salt]
23.6

For Nav1.1 (Homo sapiens (Human), UniProt P35498), give IC50 of the listed molecule: O=S(=O)(Nc1cscn1)c1ccc(NCc2c(F)cccc2CN2CCCC2)c(C(F)F)n1 [Example 18, formic acid salt]
15.5

For Nav1.1 (Homo sapiens (Human), UniProt P35498), give IC50 of the listed molecule: Cc1nc(S(=O)(=O)Nc2cscn2)ccc1NCc1c(F)ccc(F)c1CN(C)C(C)(C)C [Example 21, trifluoroacetic acid salt]
30

For Nav1.1 (Homo sapiens (Human), UniProt P35498), give IC50 of the listed molecule: Cc1nc(S(=O)(=O)Nc2cscn2)ccc1NCc1c(F)cccc1CN1C2CCC1CC2 [Example 25, trifluoroacetic acid salt]
30

For Nav1.1 (Homo sapiens (Human), UniProt P35498), give IC50 of the listed molecule: Cc1nc(S(=O)(=O)Nc2cscn2)ccc1NCc1c(F)cccc1CN1CCC1(C)C [Example 8, trifluoroacetic acid salt]
30

For Nav1.1 (Homo sapiens (Human), UniProt P35498), give IC50 of the listed molecule: Cc1cc(S(=O)(=O)Nc2cccc(F)n2)sc1NCc1c(F)cccc1CN1CCCC1 [Example 43, trifluoroacetic acid salt]
8.21

For Nav1.1 (Homo sapiens (Human), UniProt P35498), give IC50 of the listed molecule: Cc1nc(S(=O)(=O)Nc2cccc(F)n2)ccc1NCc1c(F)cccc1CN(C)C(C)(C)C [Example 22, trifluoroacetic acid salt]
30

For Nav1.1 (Homo sapiens (Human), UniProt P35498), give IC50 of the listed molecule: C[C@H](Nc1ncc(S(=O)(=O)Nc2cscn2)cc1Cl)c1ccccc1F [Example 2]
25.8

For Nav1.1 (Homo sapiens (Human), UniProt P35498), give IC50 of the listed molecule: Cc1cc(S(=O)(=O)Nc2ccsn2)ncc1NCc1c(F)cccc1CN1CCC1 [Example 12, trifluoroacetic acid salt]
30

For Nav1.1 (Homo sapiens (Human), UniProt P35498), give IC50 of the listed molecule: CN(Cc1cccc(F)c1CNc1cc(F)c(S(=O)(=O)Nc2cscn2)nc1C1CC1)C(C)(C)C [Example 49]
3.75

For Nav1.1 (Homo sapiens (Human), UniProt P35498), give IC50 of the listed molecule: Cc1nc(S(=O)(=O)Nc2cscn2)c(F)cc1NCc1c(F)cccc1CN(C)C(C)(C)C [Example 48]
30

For Nav1.1 (Homo sapiens (Human), UniProt P35498), give IC50 of the listed molecule: Cc1nc(S(=O)(=O)Nc2ccsn2)ccc1NCc1c(F)cccc1CN(C)C(C)(C)C [Example 19, trifluoroacetic acid salt]
30
